- PROTOCOL_NOTES: Cytotoxicity against human U251 cells assessed as inhibition of cell growth measured after 72 hrs by MTT assay
- Type: toxicity, cell-based, U-251

>  <SMILES_INPUT>
c1ccc(-c2nc(CNc3ncccn3)cs2)cc1

>  <IC50 at 72 h>
> 100 µM

$$$$
>  <SMILES_INPUT>
CC(C)CNc1ccnc(NCc2csc(-c3ccccc3)n2)n1

>  <IC50 at 72 h>
49.1 µM

$$$$
>  <SMILES_INPUT>
CC(C)CNc1ccnc(NCc2csc(-c3ccccc3)c2)n1

>  <IC50 at 72 h>
25.8 µM

$$$$
>  <SMILES_INPUT>
c1ccc(-c2nc(CNc3nccc(NC4CCCCC4)n3)cs2)cc1

>  <IC50 at 72 h>
10.8 µM

$$$$
>  <SMILES_INPUT>
c1ccc(-c2nc(CNc3nccc(N4CCCC4)n3)cs2)cc1

>  <IC50 at 72 h>
17.4 µM

$$$$
>  <SMILES_INPUT>
COc1cccc2c1C(=O)c1c(O)c3c(c(O)c1C2=O)C[C@@](O)(C(=O)CO)C[C@@H]3O[C@H]1C[C@H](N)[C@H](O)[C@H](C)O1

>  <IC50 at 72 h>
0.45 µM

$$$$
>  <SMILES_INPUT>
CC(C)CNc1ccnc(NC(=O)c2csc(-c3ccccc3)n2)n1

>  <IC50 at 72 h>
92.1 µM

$$$$
>  <SMILES_INPUT>
CCCCN(CCCC)c1ccnc(NCc2csc(-c3ccccc3)n2)n1

>  <IC50 at 72 h>
14.2 µM

$$$$
>  <SMILES_INPUT>
c1ccc(-c2nc(CNc3nccc(N4CCCCC4)n3)cs2)cc1

>  <IC50 at 72 h>
12.3 µM

$$$$
>  <SMILES_INPUT>
c1ccc(-c2nc(CNc3nccc(N4CCC4)n3)cs2)cc1

>  <IC50 at 72 h>
29.2 µM

$$$$
